These measurements were taken from the supplement of paper PMC6555819.

test system: PPARa:RXRa (NR concentration 270 nM, RXRa partner concentration 90 nM); experiment: PBM binding z-score (relative to random genomic background probes); higher = stronger binding; sequences stand for … in GC…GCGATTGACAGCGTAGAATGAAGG
Label YES for high-side PBM binding z-score (at or above 2) and NO for low-side PBM binding z-score (below it).

{"columns": ["sequence_string", "cat"],
 "data": [
  ["GCAGACAGGTGAATCGCAGGTAACTCAGGGTGGC", "NO"],
  ["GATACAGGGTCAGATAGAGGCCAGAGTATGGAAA", "YES"],
  ["AGTCAAAGTTCATCTAGGTAACGGAAGATATGCT", "YES"],
  ["GTACCAAGGTGAATAGGTCGGTGATGAGTAGGCG", "NO"],
  ["TCTTGTAGATTAATAGAGGTTAAGAAAGTGCGCT", "YES"],
  ["AATACAGGGTCACCAGGCCAGAGTAGGTACGAAT", "YES"],
  ["GCTAGTTGGTCAATAAAAGGTCACACACCGGTCG", "YES"],
  ["TCATATAGCTAATACAGGTGAAAGTCGGCATCTA", "NO"],
  ["ATCTCTAGGTAACCAAGTTCGGTGAATGCCGAAC", "NO"],
  ["ACTAGCAGGCCAAGGGTAACTCAAGATTAGTCCG", "NO"],
  ["CGTCAAATTTCAACTAAGGTAACGTAAAGCACGC", "NO"],
  ["CGTCCAAGGTCAATCCTAGGTCAGTGAAAGCATT", "YES"],
  ["TTAACAAGGTGAAGGTCGTTGATCCCTCTGTAGA", "YES"],
  ["ATCGAAAGGTCGAGGTGAGTAAAGAGAAAGGGAA", "YES"],
  ["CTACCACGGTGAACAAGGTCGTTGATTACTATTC", "NO"],
  ["ATATGTGGGTTAGCTGGGGTCATTCAGACTAGGC", "YES"],
  ["AGAACGAGGGCACGCCGAGTTGATAGCAGAGTAG", "YES"],
  ["CCTAGTAGTTGACCATAAGGGCAACCGAAGCTCG", "NO"],
  ["TCTTGTAGATCAACAGGAGGTTAAGTAAGATCGA", "NO"],
  ["GTTCCAAGGTGAATAGGTCGTTGATGAGTAGGCG", "YES"],
  ["TCTATTAGTTGATTAGGGAAACCGAAACAGCGGA", "NO"],
  ["GGAACGATGGCAAAGTTGATAGCATCTGTCGACG", "NO"],
  ["AGAACGAGGGCACGCTGTGTTGATAGCAGAGTAG", "NO"],
  ["GCATATAGGTAATACCAGGTGAAAGTCCGATTGT", "NO"],
  ["TAGCCTAGGTTATTGGGCCAGTATAGTACGCATC", "NO"],
  ["TCTTGTAGATCAGCAGTTTAAGAAAGCTGGCCAA", "NO"]
]}

* * *

tested on: VDR homodimer (NR concentration 270 nM); test: PBM binding z-score (relative to random genomic background probes); higher = stronger binding; sequences stand for … in GC…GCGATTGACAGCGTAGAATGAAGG

{"columns": ["sequence_string", "subject_of_test", "PBM binding z-score"],
 "data": [
  ["CGTCCAAGGTAAAGGTCAGTGAAAGAGACTCGAA", "VDR homodimer (NR concentration 270 nM)", 0.765],
  ["CGTCCAAGGTCTAAGGTCAGTGAAGAGATGACGG", "VDR homodimer (NR concentration 270 nM)", 1.1],
  ["GCTCGGAGGACAAGGTCAGATCTTTGTCCGTAGA", "VDR homodimer (NR concentration 270 nM)", 0.872],
  ["ATCTCTAGGTAAGACTCAGTTCAGGGAAGAACGC", "VDR homodimer (NR concentration 270 nM)", 1.72],
  ["GCTTATAGATCAAGGTTAAGAAAGACTAAGCTAA", "VDR homodimer (NR concentration 270 nM)", -0.265],
  ["TCTCGGAGGACTCGAAGGTCAGAGCTTTCCAGAG", "VDR homodimer (NR concentration 270 nM)", -0.0798]
]}
